Provenance of the data: ChEMBL document CHEMBL2321810

Tested system: Sodium channel protein type 9 subunit alpha (Homo sapiens)
Assay comment: cell-based
Quantity: IC50 (nM)

Reference set (2 entries):
N#Cc1cc(S(=O)(=O)Nc2cnoc2)ccc1Oc1ccccc1-c1ccccc1; 10000
Cc1cc(-c2ccnn2C)ccc1Oc1ccc(S(=O)(=O)Nc2ncc(F)s2)cc1C#N; 1100

a: N#Cc1cc(S(=O)(=O)Nc2nccs2)ccc1Oc1ccc(-c2cc(C(F)(F)F)n(CCCF)n2)cc1F
b: N#Cc1cc(S(=O)(=O)Nc2ncc(F)s2)ccc1Oc1ccccc1-c1ccccc1
When a and b are compared, which has the higher number for IC50? I would appreciate it if you answered with the label of your choice.
a

====

Tested system: Sodium channel protein type 9 subunit alpha (Homo sapiens)
Assay comment: cell-based
Quantity: IC50 (nM)

Known IC50 results, listed for orientation:
N#Cc1cc(S(=O)(=O)Nc2ncns2)ccc1Oc1ccc(C(F)(F)F)cc1-c1cccnc1; 12
CN1CCN(c2ccc(Oc3ccc(SNc4nccs4)cc3C#N)cc2)C1=O; 1000
N#Cc1cc(S(=O)(=O)Nc2ncns2)ccc1Oc1ccc(-n2cc(COC(=O)C(F)(F)F)cn2)cc1; 1000

P: N#Cc1cc(S(=O)(=O)Nc2ccc(F)cn2)ccc1Oc1ccc(-n2ccnc2)cc1
Q: N#Cc1cc(S(=O)(=O)Nc2nccs2)ccc1Oc1ccc(F)cc1-c1ccc(F)nc1
Exercise: compare P and Q ; which one has the greater IC50? State the label of the item chosen.
P
(P: 3000 nM, Q: 230 nM)

====

Tested system: Sodium channel protein type 9 subunit alpha (Homo sapiens, UniProt Q15858)
Sequence (Q15858 whole entry): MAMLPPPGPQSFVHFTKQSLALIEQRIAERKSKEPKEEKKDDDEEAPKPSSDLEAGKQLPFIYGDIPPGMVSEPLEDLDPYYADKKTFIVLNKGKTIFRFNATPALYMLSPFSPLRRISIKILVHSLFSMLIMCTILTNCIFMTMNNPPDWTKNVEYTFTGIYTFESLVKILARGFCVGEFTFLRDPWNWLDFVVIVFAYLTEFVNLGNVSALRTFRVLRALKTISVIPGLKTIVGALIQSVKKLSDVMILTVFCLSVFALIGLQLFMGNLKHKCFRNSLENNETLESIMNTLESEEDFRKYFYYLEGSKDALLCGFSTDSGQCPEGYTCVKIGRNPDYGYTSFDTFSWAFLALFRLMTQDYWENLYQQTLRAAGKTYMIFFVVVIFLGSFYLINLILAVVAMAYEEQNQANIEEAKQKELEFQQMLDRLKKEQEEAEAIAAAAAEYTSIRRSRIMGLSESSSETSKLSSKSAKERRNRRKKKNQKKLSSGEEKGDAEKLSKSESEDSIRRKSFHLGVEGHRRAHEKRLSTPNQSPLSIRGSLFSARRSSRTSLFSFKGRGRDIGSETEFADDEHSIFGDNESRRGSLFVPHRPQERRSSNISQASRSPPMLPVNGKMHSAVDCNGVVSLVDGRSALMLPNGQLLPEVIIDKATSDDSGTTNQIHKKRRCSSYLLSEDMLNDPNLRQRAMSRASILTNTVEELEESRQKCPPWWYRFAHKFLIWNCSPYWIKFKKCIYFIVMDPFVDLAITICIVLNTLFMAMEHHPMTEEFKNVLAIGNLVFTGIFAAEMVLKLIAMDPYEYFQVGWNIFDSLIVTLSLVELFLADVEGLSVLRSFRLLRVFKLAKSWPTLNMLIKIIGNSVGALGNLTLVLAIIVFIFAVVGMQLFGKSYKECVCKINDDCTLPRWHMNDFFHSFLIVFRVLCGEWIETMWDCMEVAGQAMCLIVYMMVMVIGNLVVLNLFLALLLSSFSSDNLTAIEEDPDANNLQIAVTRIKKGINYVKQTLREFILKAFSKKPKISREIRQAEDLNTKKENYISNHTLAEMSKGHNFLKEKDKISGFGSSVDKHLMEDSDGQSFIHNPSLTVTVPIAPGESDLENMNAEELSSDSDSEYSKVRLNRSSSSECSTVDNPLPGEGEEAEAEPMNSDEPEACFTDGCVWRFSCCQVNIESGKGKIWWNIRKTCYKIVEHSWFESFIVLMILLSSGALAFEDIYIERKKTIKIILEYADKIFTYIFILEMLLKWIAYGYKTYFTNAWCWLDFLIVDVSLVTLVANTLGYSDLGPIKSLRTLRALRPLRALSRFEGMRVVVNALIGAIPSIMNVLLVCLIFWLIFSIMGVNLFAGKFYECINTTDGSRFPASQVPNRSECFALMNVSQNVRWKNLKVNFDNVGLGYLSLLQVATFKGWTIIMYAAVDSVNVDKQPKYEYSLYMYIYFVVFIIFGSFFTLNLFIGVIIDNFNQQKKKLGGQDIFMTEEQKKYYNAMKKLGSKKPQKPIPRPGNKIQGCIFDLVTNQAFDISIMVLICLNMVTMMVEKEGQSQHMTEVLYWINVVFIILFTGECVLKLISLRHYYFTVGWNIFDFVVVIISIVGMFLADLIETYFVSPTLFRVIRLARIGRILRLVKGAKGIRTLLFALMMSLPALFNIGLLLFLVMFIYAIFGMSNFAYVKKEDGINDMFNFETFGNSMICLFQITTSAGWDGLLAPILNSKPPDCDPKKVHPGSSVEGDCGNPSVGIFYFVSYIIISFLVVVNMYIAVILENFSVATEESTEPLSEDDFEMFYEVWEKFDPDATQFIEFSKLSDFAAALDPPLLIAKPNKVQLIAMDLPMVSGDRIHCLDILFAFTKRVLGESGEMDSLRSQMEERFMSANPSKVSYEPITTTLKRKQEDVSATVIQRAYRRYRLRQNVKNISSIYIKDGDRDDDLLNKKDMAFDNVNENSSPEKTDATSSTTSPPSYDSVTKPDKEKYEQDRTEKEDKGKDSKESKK
Assay comment: cell-based
Quantity: IC50 (µM)

Cc1nc(-c2ccccc2Oc2ccc(S(=O)(=O)Nc3ccc(F)cn3)cc2C#N)cs1; 30
O=S(=O)(Nc1nccs1)c1ccc(Oc2ccc(Oc3ccccc3)cc2)c(F)c1; 10
N#Cc1cnc(NS(=O)(=O)c2ccc(Oc3ccccc3-c3ccccc3)c(C#N)c2)s1; 12.2

a: O=S(=O)(Nc1cscn1)c1cc(F)c(Oc2ccc(Cl)cc2-c2ccnc(N3CCNCC3)c2)cc1F
b: Cn1nccc1NS(=O)(=O)c1ccc(Oc2ccc(Cl)cc2-c2ccnn2C)c(C#N)c1
c: N#Cc1cc(S(=O)(=O)Nc2ncns2)ccc1Oc1ccc(-c2nc(CO)co2)cc1
d: CC(C)Oc1cc(-c2cc(F)ccc2Oc2ccc(S(=O)(=O)Nc3cscn3)cc2C#N)n(C)n1
Your job: order these 4 records by IC50, ascending. Labels, ranked as asked.
a, c, d, b
(a: 0.0037 µM, c: 1 µM, d: 3 µM, b: 10 µM)

====

Tested system: Sodium channel protein type 9 subunit alpha (Homo sapiens, UniProt Q15858)
Assay comment: cell-based
pIC50: −log10 of the molar value.
Quantity: pIC50

Solved cases below.
COc1cc(-c2ccc(Oc3ccc(S(=O)(=O)Nc4nccs4)cc3)c(F)c2)n(C)n1; 5.57
N#Cc1cc(S(=O)(=O)Nc2nccs2)ccc1Oc1ccc(-c2cn(CC(F)(F)F)nc2N)cc1; 6.00
Cn1nccc1-c1ccc(Oc2ccc(S(=O)(=O)Nc3nccs3)cc2C#N)cn1; 6.00
Cn1cnnc1-c1cc(Cl)ccc1Oc1ccc(S(=O)(=O)Nc2nccs2)cc1F; 6.00
CC(C)(C)n1ccc(-c2cc(F)ccc2Oc2cc(F)c(S(=O)(=O)Nc3cscn3)cc2Cl)n1; 6.00

P: N#Cc1cc(S(=O)(=O)Nc2nccs2)ccc1Oc1cnn(-c2ccc(Cl)cc2Cl)c1
Q: N#Cc1cc(S(=O)(=O)Nc2ncns2)ccc1Oc1cnc(N)nc1-c1ccc(Cl)cc1
Between P and Q , whose recorded pIC50 is greater? Answer by quoting the chosen item's label.
P

I: CCn1nc(C(F)(F)F)cc1-c1cccc(Oc2ccc(S(=O)(=O)Nc3ccc(F)cn3)cc2C#N)c1
II: CC(C)(C)OC(=O)N1CCC(c2cc(Cl)ccc2Oc2ccc(S(=O)(=O)Nc3ncns3)cc2C#N)CC1
III: N#Cc1cc(S(=O)(=O)Nc2nccs2)ccc1Oc1ccccc1-c1ccno1
I would appreciate it if you could sort these 3 compounds by pIC50, starting from the smallest number. Quick reminder: the answer is the labels in the order asked.
III, I, II

A: Cn1nccc1-c1cccc(Oc2ccc(S(=O)(=O)Nc3nccs3)cc2C#N)c1
B: CCn1nc(C(F)(F)F)cc1-c1ccc(Oc2ccc(S(=O)(=O)Nc3ncccc3F)cc2C#N)cc1
Between A and B , whose recorded pIC50 is greater? Respond with the label that goes with your answer.
A
(A: 6.00, B: 4.85)

1: CC(C)c1nsc(NS(=O)(=O)c2ccc(Oc3ccccc3-c3ccccc3)c(C#N)c2)n1
2: N#Cc1ccc(NS(=O)(=O)c2ccc(Oc3ccccc3-c3ccccc3)c(C#N)c2)nc1
Lower pIC50: 1 or 2 ? Answer format: the label of the selected item.
2
(2: 4.60, 1: 5.00)
